- measurement protocol: clinical
- condition summary: human, plasma, oral
reported endpoint: concentration at 7 h (µg/mL)
Response body: numeric value in µg/mL, unit text excluded.

Query: Which measured concentration at 7 h value corresponds to O=C(O)c1ccccc1O [Salicylic acid] ?
Result: 0.0454

###

- measurement protocol: clinical
- condition summary: human, plasma, oral
reported endpoint: concentration at 0 h (ng/mL)
API: value field is a number in ng/mL; no unit string.

Query: Which value of concentration at 0 h has been reported for O=C(O)c1ccccc1O [Salicylic acid] in the records?
Result: 0

###

- measurement protocol: clinical
- condition summary: human, plasma, oral
reported endpoint: concentration at 24 h (ng/mL)
Give the value in ng/mL but do not write ng/mL after it.

Query: What concentration at 24 h value was documented for this molecule, O=C(O)c1ccccc1O [Salicylic acid] ?
Result: 1.16
